The measured values listed here are drawn from PubChem BioAssay (NCI).

Tested on: K-562 leukemia
Assay: NCI tumour cell line growth inhibition, 48 h

{"COMPOUND": "C=C1CCC2(C#N)[C@H]3[C@H](CC[C@@H]2C)[C@@H](C)C[C@@H](CC(C)(C)NC(=O)CN2CCC2=O)[C@H]13 (stereo partly specified)", "MEASURED_ON": "K-562 leukemia", "OUTPUT_UNIT": "µM", "READOUT_RELATION": "=", "TGI": 53.1}
{"COMPOUND": "O=C(CCN1CCN2c3ccccc3CCC2C1)c1ccc(F)cc1 (stereo unspecified)", "MEASURED_ON": "K-562 leukemia", "OUTPUT_UNIT": "µM", "READOUT_RELATION": ">", "TGI": 100}
{"COMPOUND": "CC1CCSC(N(C(=O)N(C)c2ccccc2)c2ccccc2)=N1 (stereo unspecified)", "MEASURED_ON": "K-562 leukemia", "OUTPUT_UNIT": "µM", "READOUT_RELATION": ">", "TGI": 100}
{"COMPOUND": "COc1cc(C2C3=C(COC3=O)Oc3cc4c(cc32)OCO4)cc(OC)c1O (stereo unspecified)", "MEASURED_ON": "K-562 leukemia", "OUTPUT_UNIT": "µM", "READOUT_RELATION": "=", "TGI": 0.402}
{"COMPOUND": "CC(C)(C)C(=CS(=O)/N=C/c1ccccc1)C(C)(C)C (stereo unspecified)", "MEASURED_ON": "K-562 leukemia", "OUTPUT_UNIT": "µM", "READOUT_RELATION": "=", "TGI": 86.4}
{"COMPOUND": "CC(=O)Nc1ccc(OC/C(N)=N/NC(=O)c2ccncc2)cc1", "MEASURED_ON": "K-562 leukemia", "OUTPUT_UNIT": "µM", "READOUT_RELATION": ">", "TGI": 100}

###

System: SNB-19 CNS
Assay: NCI tumour cell line growth inhibition, 48 h

{"COMPOUND": "CC(C)CCCC(C)[C@H]1CCC2[C@@H]3CCC4Nc5c(cnn5-c5ccccc5)C[C@]4(C)C3CC[C@@]21C (stereo not given in full)", "MEASURED_ON": "SNB-19 CNS", "READOUT_RELATION": "=", "TGI [µM]": 63.1}
{"COMPOUND": "CCOC(=O)CCn1ncc(Cl)c(Cl)c1=O", "MEASURED_ON": "SNB-19 CNS", "READOUT_RELATION": "=", "TGI [µM]": 26.7}
{"COMPOUND": "CCOC(=O)Nn1c(CC#N)nnc1Cc1ccccc1", "MEASURED_ON": "SNB-19 CNS", "READOUT_RELATION": ">", "TGI [µM]": 100}
{"COMPOUND": "OCc1ccc(-c2cscc2-c2ccc(CO)o2)o1", "MEASURED_ON": "SNB-19 CNS", "READOUT_RELATION": ">", "TGI [µM]": 100}
{"COMPOUND": "COc1ccc(C(=O)CC(c2ccccc2)[C@H]2C(c3ccc(OC)cc3)=Nc3c(nc(SC)n(C)c3=O)NC2c2ccccc2)cc1 (stereo not given in full)", "MEASURED_ON": "SNB-19 CNS", "READOUT_RELATION": ">", "TGI [µM]": 100}
{"COMPOUND": "Cc1c(C(=O)OCc2ccccc2)[n+](=O)c2cc(Cl)c(Cl)cc2n1[O-]", "MEASURED_ON": "SNB-19 CNS", "READOUT_RELATION": "=", "TGI [µM]": 68.1}
{"COMPOUND": "Cc1cc(N(CCC#N)CCC#N)ccc1N=Nc1ccc(Br)cc1", "MEASURED_ON": "SNB-19 CNS", "READOUT_RELATION": ">", "TGI [µM]": 57.6}
{"COMPOUND": "COc1ccc2[nH]c(O)c(/C=c3/cc4c(c(-c5ccc(F)c(OC)c5)n3)=Nc3ccccc3-4)c2c1", "MEASURED_ON": "SNB-19 CNS", "READOUT_RELATION": "=", "TGI [µM]": 11.6}
{"COMPOUND": "C=C=C(CC(CC(=C)Br)(C(=O)OC)C(=O)OC)S(=O)(=O)c1ccccc1", "MEASURED_ON": "SNB-19 CNS", "READOUT_RELATION": "=", "TGI [µM]": 24.9}
{"COMPOUND": "CC1=Nc2ccccc2/C1=C\\c1c(C)[nH]c2ccccc12", "MEASURED_ON": "SNB-19 CNS", "READOUT_RELATION": "=", "TGI [µM]": 35.5}

###

Let's look at some compounds and their measured TGI.
Test system: IGROV1 ovarian
Assay: NCI tumour cell line growth inhibition, 48 h

{"COMPOUND": "C=CC(=O)Nc1cc(N2CCN(CC)CC2)ccc1Nc1cc(N(C)C(=O)Nc2c(Cl)c(OC)cc(OC)c2Cl)ncn1", "TGI": "7.35 µM"}
{"COMPOUND": "COc1cccc(C=O)c1[O-].[O]=[U](=[O])([OH2+])[OH2+]", "TGI": "> 100 µM"}
{"COMPOUND": "O=c1cc(N/N=C/c2ccc(F)cc2)c2cc(Cl)ccc2[nH]1", "TGI": "> 100 µM"}
{"COMPOUND": "CC(=O)[O-].[Mn+3].[O-]c1ccccc1C=NCCNCCN=Cc1ccccc1[O-]", "TGI": "> 100 µM"}
{"COMPOUND": "COC(=O)c1c2c(cc3c1CC1(Cc4cc5c(c(C(C)=O)c4C1)CCC5)C3)CCC2 (stereo not given)", "TGI": "> 100 µM"}

###

Recorded measurements of GI50, one per entry
Tested on: SW-620 colon
Experiment: NCI tumour cell line growth inhibition, 48 h

{"MOLECULE": "Cc1nn2c(/C=C3/C(=O)Nc4cc(Cl)ccc43)c(-c3ccccc3)nc2s1", "MEASURED_ON": "SW-620 colon", "GI50": "3 µM"}
{"MOLECULE": "O=P1(S)OC[C@H]2O[C@@H]3[C@H](F)[C@@H]2OP(O)(=S)OC[C@H]2O[C@H]([C@H](F)[C@@H]2O1)n1cnc2c(ncnc21)NC/C=C/CNc1ncnc2c1ncn23 (some centres undefined)", "MEASURED_ON": "SW-620 colon", "GI50": "> 100 µM"}
{"MOLECULE": "CCN(c1cc(-c2ccc(CN3CCOCC3)cc2)cc(C(=O)NCc2c(C)cc(C)[nH]c2=O)c1C)C1CCOCC1", "MEASURED_ON": "SW-620 colon", "GI50": "20.7 µM"}
{"MOLECULE": "C1=C2CCCC3=Cc4ccccc4OC23Oc2ccccc21", "MEASURED_ON": "SW-620 colon", "GI50": "3.36 µM"}

###

System: COLO 205 colon
Experiment: NCI tumour cell line growth inhibition, 48 h
VALUE_KIND: log10 TGI (log10 of the value in µM)

{"COMPOUND": "O=C([O][Sn]([O]C(=O)c1ccccn1)([c]1ccccc1)[c]1ccccc1)c1ccccn1", "MEASURED_ON": "COLO 205 colon", "log10 TGI": 1.29}
{"COMPOUND": "C=CC[n+]1c2ccccc2n2cc([N+](=O)[O-])ccc21", "MEASURED_ON": "COLO 205 colon", "log10 TGI": 1.42}
{"COMPOUND": "Cc1cc(=O)[nH]c(NN2C(Cl)C(=O)C2c2ccc([N+](=O)[O-])cc2)n1 (configuration not stated)", "MEASURED_ON": "COLO 205 colon", "log10 TGI": 1.56}
{"COMPOUND": "Cc1cc(O)c(C2=NN(c3ccc(S(N)(=O)=O)cc3)C(c3ccc(Cl)cc3)C2)c(C)c1Cl (configuration not stated)", "MEASURED_ON": "COLO 205 colon", "log10 TGI": 0.52}
{"COMPOUND": "COc1cc(C2C(Cl)C(=O)N2c2c(C)n(C)n(-c3ccccc3)c2=O)ccc1O (configuration not stated)", "MEASURED_ON": "COLO 205 colon", "log10 TGI": 1.54}

###

System: EKVX NSCLC
Experiment: NCI tumour cell line growth inhibition, 48 h; in the data active means GI50 below about 0.43 µM; inactive means the rest
Outcome codes: active, inactive

{"COMPOUND": "O=C(Oc1ccc(CO[N+](=O)[O-])cc1)c1ccccc1", "CATEGORY": "active"}
{"COMPOUND": "O=c1/c(=C\\c2ccc(F)cc2)sc2n1C(c1ccc(F)cc1)C1=C(N=2)c2ccc3ccccc3c2OCC1 (centres undefined)", "CATEGORY": "inactive"}
{"COMPOUND": "C=CC(=O)Nc1cc(N2CCN(CC)CC2)ccc1Nc1cc(N(C)C(=O)Nc2c(Cl)c(OC)cc(OC)c2Cl)ncn1", "CATEGORY": "inactive"}
{"COMPOUND": "O=C(c1ccccc1)c1c(NCC(O)CN2CCOCC2)n(Cc2ccccc2)c(=O)n(Cc2ccccc2)c1=O (centres undefined)", "CATEGORY": "inactive"}
{"COMPOUND": "Cc1nc2c(n1C)C(=O)c1ccccc1C2=O", "CATEGORY": "inactive"}
{"COMPOUND": "COc1ccc2[nH]c(O)c(/C=c3/cc4c(c(-c5ccc(F)c(OC)c5)n3)=Nc3ccccc3-4)c2c1", "CATEGORY": "inactive"}
{"COMPOUND": "C1CC[N-]CC1.CC(=N\\O)/C(C)=N/O.CC(=N\\O)/C(C)=N/O.OC1[CH-]CCCC1.[Co+2]", "CATEGORY": "inactive"}
{"COMPOUND": "Cc1nc(Nc2ccccn2)sc1C(=O)/C=C/c1ccc(Cl)cc1", "CATEGORY": "inactive"}
{"COMPOUND": "COc1ncnc(S(=O)(=O)c2ccc(N=C3C(=O)N(CN4CCN(c5cc6c(cc5F)c(=O)c(C(=O)O)cn6C5CC5)CC4)c4ccc(Cl)cc43)cc2)c1OC", "CATEGORY": "inactive"}
